Just for reference, patent EP4725957A1 is where these values come from.

# MIC values compiled below
- Tested on: Klebsiella pneumoniae KPN+19-15
- Assay type: cell-based
- Recorded Conditions: KPN+19-15
Bridge positions count the residues as written; N and C are the ends. Square brackets hold non-standard residues; d marks the D form. Peptide text beside a SMILES is read from it. * marks the point of attachment. X1 = CC[C@H](C)CCCCC(=O)*; Heptanoyl = CCCCCCC(=O)*; Octanoyl = CCCCCCCC(=O)*; Orn = NCCC[C@H](N)C(=O)O; dDap = NC[C@@H](N)C(=O)O; Dab = NCC[C@H](N)C(=O)O

Molecule	MIC
CC[C@H](C)CCCCC(=O)N[C@@H](CCN)C(=O)N[C@H](C(=O)N[C@H](CN)C(=O)N[C@H]1CCNC(=O)[C@H]([C@@H](C)O)NC(=O)[C@H](CCN)NC(=O)[C@H](CCN)NC(=O)[C@H]([C@@H](C)O)NC(=O)[C@@H](Cc2ccccc2)NC(=O)[C@H](CCN)NC1=O)[C@@H](C)O [Compound 1] (X1-[Dab]T[dDap][Dab][Dab][dF]T[Dab][Dab]T; lactam 4-C)	≤0.03 µg/mL
CCCCCCC(=O)N[C@@H](CCN)C(=O)N[C@H](C(=O)N[C@H](CO)C(=O)N[C@H]1CCNC(=O)[C@H]([C@@H](C)O)NC(=O)[C@H](CCN)NC(=O)[C@H](CCN)NC(=O)[C@H]([C@@H](C)O)NC(=O)[C@@H](Cc2ccccc2)NC(=O)[C@H](CCCN)NC1=O)[C@@H](C)O [Compound 69] (Heptanoyl-[Dab]T[dS][Dab][Orn][dF]T[Dab][Dab]T; lactam 4-C)	0.5 µg/mL
CCCCCCCC(=O)N[C@@H](CCN)C(=O)N[C@H](C(=O)N[C@@H](CCCN)C(=O)N[C@H]1CCNC(=O)[C@H]([C@@H](C)O)NC(=O)[C@H](CCN)NC(=O)[C@H](CCN)NC(=O)[C@H](CC(C)C)NC(=O)[C@@H](Cc2ccccc2)NC(=O)[C@H](CCN)NC1=O)[C@@H](C)O [Compound 48] (Octanoyl-[Dab]T[Orn][Dab][Dab][dF]L[Dab][Dab]T; lactam 4-C)	≤0.03 µg/mL

* * *

- Test system: Escherichia coli ATCC BAA-2523
- Format: cell-based
- Recorded Conditions: ATCC BAA-2523
Bridge positions count the residues as written; N and C are the ends. Square brackets hold non-standard residues; d marks the D form. Peptide text beside a SMILES is read from it. * marks the point of attachment. Dab(CH2SO3H) = N[C@@H](CCNCS(=O)(=O)O)C(=O)O; Heptanoyl(6-Me) = CC(C)CCCCC(=O)*; Nonanoyl = CCCCCCCCC(=O)*; X1 = CC[C@H](C)CCCCC(=O)*; dDab = NCC[C@@H](N)C(=O)O; Dab = NCC[C@H](N)C(=O)O; Dap = NC[C@H](N)C(=O)O
The entries below are paired with their reported MIC.

Molecule	Comparison Sign	MIC (µg/mL)
CC(C)CCCCC(=O)N[C@@H](CCNCS(=O)(=O)O)C(=O)N[C@H](C(=O)N[C@@H](CN)C(=O)N[C@H]1CCNC(=O)[C@H]([C@@H](C)O)NC(=O)[C@H](CCN)NC(=O)[C@H](CCN)NC(=O)[C@H]([C@@H](C)O)NC(=O)[C@@H](Cc2ccccc2)NC(=O)[C@H](CCN)NC1=O)[C@@H](C)O [Compound 117] ({Heptanoyl(6-Me)}-[Dab(CH2SO3H)]T[Dap][Dab][Dab][dF]T[Dab][Dab]T; lactam 4-C)	=	0.06
CCCCCCCCC(=O)N[C@@H](CCN)C(=O)N[C@H](C(=O)N[C@H](CO)C(=O)N[C@H]1CCNC(=O)[C@H]([C@@H](C)O)NC(=O)[C@H](CCN)NC(=O)[C@H](CN)NC(=O)[C@H]([C@@H](C)O)NC(=O)[C@@H](Cc2ccccc2)NC(=O)[C@H](CCN)NC1=O)[C@@H](C)O [Compound 75] (Nonanoyl-[Dab]T[dS][Dab][Dab][dF]T[Dap][Dab]T; lactam 4-C)	=	0.06
CC[C@H](C)CCCCC(=O)N[C@@H](CCN)C(=O)N[C@H](C(=O)N[C@H](CCN)C(=O)N[C@H]1CCNC(=O)[C@H]([C@@H](C)O)NC(=O)[C@H](CCN)NC(=O)[C@H](CCN)NC(=O)[C@H]([C@@H](C)O)NC(=O)[C@@H](Cc2ccccc2)NC(=O)[C@H](CCN)NC1=O)[C@@H](C)O [Compound 11] (X1-[Dab]T[dDab][Dab][Dab][dF]T[Dab][Dab]T; lactam 4-C)	≤	0.03
CC(C)CCCCC(=O)N[C@@H](CN)C(=O)N[C@H](C(=O)N[C@H](CO)C(=O)N[C@H]1CCNC(=O)[C@H]([C@@H](C)O)NC(=O)[C@H](CCN)NC(=O)[C@H](CCN)NC(=O)[C@H]([C@@H](C)O)NC(=O)[C@@H](Cc2ccccc2)NC(=O)[C@H](CCN)NC1=O)[C@@H](C)O [Compound 52] ({Heptanoyl(6-Me)}-[Dap]T[dS][Dab][Dab][dF]T[Dab][Dab]T; lactam 4-C)	≤	0.03
CCCCCCCCC(=O)N[C@@H](CCN)C(=O)N[C@H](C(=O)N[C@H](CO)C(=O)N[C@H]1CCNC(=O)[C@H]([C@@H](C)O)NC(=O)[C@H](CCN)NC(=O)[C@H](CCN)NC(=O)[C@H]([C@@H](C)O)NC(=O)[C@@H](Cc2ccccc2)NC(=O)[C@H](CN)NC1=O)[C@@H](C)O [Compound 65] (Nonanoyl-[Dab]T[dS][Dab][Dap][dF]T[Dab][Dab]T; lactam 4-C)	=	0.25

* * *

- Test system: Pseudomonas aeruginosa ATCC 27853
- Type: cell-based
- Recorded Conditions: ATCC 27853
Numbered stars: 1 amine (or outer) side, 2 acyl side, 3 side chain; on linkers, the order of the positions; unused ones are H or OH. Bridge positions count the residues as written; N and C are the ends. Square brackets hold non-standard residues; d marks the D form. Peptide text beside a SMILES is read from it. * marks the point of attachment. X3 = O=C([C@@H](Cc1ccc(CS(=O)(=O)O)cc1)N[*:1])[*:2]; Heptanoyl(6-Me) = CC(C)CCCCC(=O)*; dOrn = NCCC[C@@H](N)C(=O)O; dDab = NCC[C@@H](N)C(=O)O; Octanoyl = CCCCCCCC(=O)*; Dab = NCC[C@H](N)C(=O)O

Compound	Assayed Target	MIC, µg/mL
CCCCCCCC(=O)N[C@@H](CCN)C(=O)N[C@H](C(=O)N[C@H](CCCN)C(=O)N[C@H]1CCNC(=O)[C@H]([C@@H](C)O)NC(=O)[C@H](CCN)NC(=O)[C@H](CCN)NC(=O)[C@H]([C@@H](C)O)NC(=O)[C@@H](Cc2ccccc2)NC(=O)[C@H](CCN)NC1=O)[C@@H](C)O [Compound 23] (Octanoyl-[Dab]T[dOrn][Dab][Dab][dF]T[Dab][Dab]T; lactam 4-C)	Pseudomonas aeruginosa ATCC 27853	0.25
CC(C)CCCCC(=O)N[C@@H](CCN)C(=O)N[C@H](C(=O)N[C@H](CO)C(=O)N[C@H]1CCNC(=O)[C@H]([C@@H](C)O)NC(=O)[C@H](CCN)NC(=O)[C@H](CCN)NC(=O)[C@H]([C@@H](C)O)NC(=O)[C@@H](Cc2ccc(CS(=O)(=O)O)cc2)NC(=O)[C@H](CCN)NC1=O)[C@@H](C)O [Compound 107] ({Heptanoyl(6-Me)}-[Dab]T[dS][Dab][Dab][X3]T[Dab][Dab]T; lactam 4-C)	Pseudomonas aeruginosa ATCC 27853	0.25
CC(C)CCCCC(=O)N[C@@H](CCN)C(=O)N[C@H](C(=O)N[C@H](CCN)C(=O)N[C@H]1CCNC(=O)[C@H]([C@@H](C)O)NC(=O)[C@H](CCN)NC(=O)[C@H](CCN)NC(=O)[C@H]([C@@H](C)O)NC(=O)[C@@H](Cc2ccccc2)NC(=O)[C@H](CCN)NC1=O)[C@@H](C)O [Compound 12] ({Heptanoyl(6-Me)}-[Dab]T[dDab][Dab][Dab][dF]T[Dab][Dab]T; lactam 4-C)	Pseudomonas aeruginosa ATCC 27853	0.5

* * *

# MIC listing for each entry below
- System: Acinetobacter baumannii NCTC 13304 (OXA-27)
- Assay type: cell-based
- Recorded Conditions: NCTC 13304
Bridge positions count the residues as written; N and C are the ends. Square brackets hold non-standard residues; d marks the D form. Peptide text beside a SMILES is read from it. * marks the point of attachment. dOrn = NCCC[C@@H](N)C(=O)O; Nonanoyl = CCCCCCCCC(=O)*; X1 = CC[C@H](C)CCCCC(=O)*; Heptanoyl = CCCCCCC(=O)*; Dab = NCC[C@H](N)C(=O)O; Dap = NC[C@H](N)C(=O)O

Compound	MIC (µg/mL)
CCCCCCCCC(=O)N[C@@H](CCN)C(=O)N[C@H](C(=O)N[C@H](CO)C(=O)N[C@H]1CCNC(=O)[C@H]([C@@H](C)O)NC(=O)[C@H](CN)NC(=O)[C@H](CCN)NC(=O)[C@H]([C@@H](C)O)NC(=O)[C@@H](Cc2ccccc2)NC(=O)[C@H](CCN)NC1=O)[C@@H](C)O [Compound 85] (Nonanoyl-[Dab]T[dS][Dab][Dab][dF]T[Dab][Dap]T; lactam 4-C)	0.03
CC[C@H](C)CCCCC(=O)N[C@@H](CCN)C(=O)N[C@H](C(=O)N[C@H](CCCN)C(=O)N[C@H]1CCNC(=O)[C@H]([C@@H](C)O)NC(=O)[C@H](CCN)NC(=O)[C@H](CCN)NC(=O)[C@H](CC(C)C)NC(=O)[C@@H](Cc2ccccc2)NC(=O)[C@H](CCN)NC1=O)[C@@H](C)O [Compound 41] (X1-[Dab]T[dOrn][Dab][Dab][dF]L[Dab][Dab]T; lactam 4-C)	0.06
CCCCCCC(=O)N[C@@H](CCN)C(=O)N[C@H](C(=O)N[C@H](CO)C(=O)N[C@H]1CCNC(=O)[C@H]([C@@H](C)O)NC(=O)[C@H](CCN)NC(=O)[C@H](CCN)NC(=O)[C@H]([C@@H](C)O)NC(=O)[C@@H](Cc2ccccc2)NC(=O)[C@H](CN)NC1=O)[C@@H](C)O [Compound 64] (Heptanoyl-[Dab]T[dS][Dab][Dap][dF]T[Dab][Dab]T; lactam 4-C)	0.25
